Listing of pIC50 toward BTK (Homo sapiens), each taken from a published source.
pIC50: −log10 of the molar value.

C=CC(=O)N1CCCC(n2cc(-c3ccc(Oc4cccc(Cl)c4)cc3)c3c(N)n[nH]c(=O)c32)C1 (stereo not drawn) | 6.00 to 8.00

Look at each compound and report its pIC50.
1. COc1ccc(F)c(C(=O)c2c[nH]c3ncc(-c4cccnc4)cc23)c1
2. O=C(NCc1ccc(-c2ncnc3[nH]ccc23)cc1)c1ccc(C(F)(F)F)cc1

1: ≥ 5.00; 2: 6.00 to 7.00

----------
Below: compounds with IC50 recorded for BTK (Homo sapiens, UniProt Q06187) in separate published works.

C=CC(=O)Nc1cc(Nc2ncc3cc(-c4c(C)cc[nH]c4=O)ccc3n2)ccc1OC | < 0.1 µM
Cc1cc(-c2ccnc(Nc3cnn(C4CCN(C)CC4)c3)n2)ccc1CNC(=O)N1CC(OC(C)(C)C)C1 | < 0.01 µM
C=CC(=O)N1CCC[C@H](Nc2nc(Nc3ncc(C)s3)cc(CN3CCOCC3)c2F)C1 | ~1 µM
CC(C)(C)C1CCN(C(=O)NCc2ccc(-c3ccnc(Nc4cnn(C5CCNC5)c4)n3)cc2C(F)(F)F)C1 (stereo not drawn) | < 0.01 µM
C=CC(=O)N1CCC(Oc2cc(CN3CCOCC3)cc(Nc3ncc(C)s3)n2)CC1 | 0.0085 µM

List the reported IC50 of each compound below.
1. CC(C)CN(CC(C)C)S(=O)(=O)c1ccccc1NCC(=O)N1CCC[C@@H](Nc2ncnc3[nH]ncc23)C1
2. Cn1cc(Nc2nccc(-c3ccc(CNC(=O)c4cnn(C(C)(C)C)c4)c(Cl)c3)n2)cn1
3. Cc1ccc(NCC(=O)N[C@@H]2CCCN(c3ncnc4[nH]ccc34)C2)c(F)c1
4. Cn1cc(-c2cn3nccc3c(N3CC[C@@H](CNC(=O)c4noc(C(C)(C)C)n4)C(F)(F)C3)n2)cn1 (single isomer, unassigned)

1: < 0.1 µM; 2: < 0.01 µM; 3: 1 to 10 µM; 4: < 0.001 µM

----------
Published IC50 for BTK (Homo sapiens, UniProt Q06187), assembled from different documents, is shown next.

These solved cases illustrate the format of a correct answer.
Cc1cc(-c2cc(Nc3ccn(CCO)n3)ncn2)ccc1CNC(=O)c1cnc(C(C)(C)C)s1 | < 10 nM
C=CC(=O)N1CCC(c2ccc(C(N)=O)c(-c3ccc(C(O)c4ccccc4)cc3)n2)CC1 (stereo not shown) | < 500 nM
CC(C)OC1CN(C(=O)NC2CCCCc3cc(-c4ccnc(Nc5cnn(C(C)C)c5)n4)ccc32)C1 (stereo not shown) | < 10 nM

# query: IC50 | item Cc1cc(-c2nc(-c3cnn(C)c3)cn3nccc23)ccc1CN1CCN(CC(C)(C)C)CC1=O | system: BTK (Homo sapiens, UniProt Q06187)
1 to 10 nM

----------
Literature IC50 values, system: BTK (Homo sapiens).
Sequence (Q06187 whole entry): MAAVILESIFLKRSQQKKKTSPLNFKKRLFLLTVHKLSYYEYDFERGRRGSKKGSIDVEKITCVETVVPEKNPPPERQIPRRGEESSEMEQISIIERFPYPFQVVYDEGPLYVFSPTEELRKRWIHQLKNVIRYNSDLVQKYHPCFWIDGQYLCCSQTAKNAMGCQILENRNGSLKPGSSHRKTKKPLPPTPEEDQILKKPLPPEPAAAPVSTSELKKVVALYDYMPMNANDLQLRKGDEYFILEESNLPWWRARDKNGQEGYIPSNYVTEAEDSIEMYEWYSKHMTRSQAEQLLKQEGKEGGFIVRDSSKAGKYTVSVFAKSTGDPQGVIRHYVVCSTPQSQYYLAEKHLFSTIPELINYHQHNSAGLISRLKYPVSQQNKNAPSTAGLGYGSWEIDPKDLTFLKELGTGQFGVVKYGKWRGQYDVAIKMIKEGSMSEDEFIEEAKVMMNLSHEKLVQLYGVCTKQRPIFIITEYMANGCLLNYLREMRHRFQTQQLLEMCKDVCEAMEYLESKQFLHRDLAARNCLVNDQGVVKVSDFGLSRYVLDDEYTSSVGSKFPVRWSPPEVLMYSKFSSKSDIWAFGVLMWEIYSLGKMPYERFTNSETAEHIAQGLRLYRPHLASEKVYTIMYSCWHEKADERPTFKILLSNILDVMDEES

Reference set, count: 3
CN(C)C/C=C/C(=O)N1CC[C@@H](n2nc(-c3ccc(C(=O)Nc4cc(C(F)(F)F)ccn4)cc3)c3c(N)ncnc32)C1 | < 1 nM
CC(C)Oc1ccccc1NCC(=O)N[C@@H]1CCCN(c2ncnc3[nH]ccc23)C1 | 100 to 999 nM
O=C(N[C@H]1CCCc2cc(-c3ncnc4[nH]ncc34)ccc21)c1cc2c(s1)CCCC2 | < 10 nM

Give me IC50 for each of these molecules, listed below.
1. O=C(C#CC1CC1)N1CC2(CC(n3nc(-c4ccc(Oc5ccccc5)cc4)c4cncnc43)C2)C1
2. C=CC(=O)N1CCC[C@H](Nc2cc(CN3CCOCC3)cc(Nc3ncccn3)n2)C1

1. 100 to 500 nM
2. ~1000 nM

Please look at the items below and tell me IC50 for each one, in order.
1. C=CC(=O)Nc1cccc(Oc2nc(Nc3ccc(N4CCN(C5CCN(C)CC5)CC4)nc3)nc3ccsc23)c1
2. CC(C)(C)[C@@H](Nc1ccccc1)C(=O)N[C@@H]1CCCN(c2ncnc3[nH]ccc23)C1
3. CCN(CC)C/C=C/C(=O)N1CCC[C@@H](n2cc(-c3ccc(Oc4ccccc4)cc3)c3c(N)n[nH]c(=O)c32)C1

1: ≤ 50 nM; 2: 100 to 999 nM; 3: ≤ 10 nM

----------
Literature IC50 values, system: BTK (Homo sapiens).

Recorded results for 6 compounds are shown here.
C=CC(=O)N1CC2(CC(n3nc(-c4ccc(Oc5ccccc5)cc4)c4cncnc43)C2)C1 | < 100 nM
C=CC(=O)NN1CCC[C@@H](n2c(=O)n(-c3ccc(C(=O)Nc4ccccn4)cc3)c3c(N)ncnc32)C1 | 23 nM
CC(C)(C)C1CCN(C(=O)NCc2ccc(-c3ccnc(Nc4cnn([C@H]5CCNC5)c4)n3)cc2C(F)(F)F)C1 (some centres unmarked) | < 10 nM
Cc1ccc2c(N)c(C(N)=O)nnc2c1-c1ccc2cncn2c1 | 20 nM
Cn1cc(-c2cc3c(-c4ccc5c(c4)CCCCC5NC(=O)c4cnn(C(C)(C)C)c4)ncnc3[nH]2)cn1 (centres unmarked) | < 10 nM
CC#CC(=O)N1CCC[C@@H](n2nc(-c3ccc(Oc4ccccc4)cc3)c3cncnc32)C1 | > 500 nM

Please look at the items below and tell me IC50 for each one, in order.
1. C=CC(=O)N1CCC(c2ccc(C(N)=O)c(-c3ccc(Oc4ccccc4)cc3)n2)C1 (centres unmarked)
2. CC#CC(=O)N[C@H]1CCC[C@@H](c2c(F)cc(C(N)=O)c3[nH]c(C)c(Cl)c23)C1
3. NC(=O)c1cn(-c2cccc(N)c2)nc1-c1ccc(Oc2ccccc2)cc1
4. C=CC(=O)Nc1cccc(Oc2nc(Nc3ccc(C(=O)N4CCN(CC)CC4)c(Cl)c3)nc3ccsc23)c1
5. C=CC(=O)Nc1cccc(Oc2nc(Nc3ccc(S(=O)(=O)NC4CCN(C)CC4)cc3)nc3ccsc23)c1

["< 500 nM", "1 to 10 nM", "< 500 nM", "≤ 50 nM", "≤ 50 nM"]

Provide reported IC50 for each item, in the same order as listed.
1. COc1cc(-c2nn(-c3ccc(N(C)C(=O)/C=C/CN(C)C)cn3)c3ncnc(N)c23)ccc1C
2. C=CC(=O)N1CCc2c(cccc2-c2ncc(C(N)=O)c3[nH]c4c(c23)CC2(CC4)CC2)C1
3. CCC[C@@H](Nc1cc(F)cc(Cl)c1)C(=O)N[C@@H]1CCCN(c2ncnc3[nH]ncc23)C1
4. CC(C)(C)n1ccc(C(=O)NCc2ccc(-c3nc(N4CCOCC4)cn4nccc34)cc2)n1
5. O=C(NCc1ccc(-c2ncnc3[nH]ccc23)cc1)c1cn2c(n1)CCCC2
6. C=CC(=O)NCC(=O)Nc1cccc(Nc2ncc3cc(-c4c(C)cc[nH]c4=O)ccc3n2)c1
7. O=C(N[C@@H]1CCCN(c2ncnc3[nH]ccc23)C1)C1(Nc2ccccc2)CC1
8. Nc1ncnc2c1c(-c1ccc(Cl)c(O)c1)cn2C1Cc2ccccc2C1

1. < 100 nM
2. < 10 nM
3. < 100 nM
4. 1000 to 10000 nM
5. > 10000 nM
6. < 100 nM
7. 1000 to 10000 nM
8. 0.8 nM

----------
Recorded IC50 for molecules tested on UniProt:Q06187, drawn from a number of studies.

Consider the following items and state reported IC50 for each.
1. C=CC(=O)N1CC[C@]2(C1)C[C@H](n1c(NC(=O)c3ccc(C(=O)NCC)s3)nc3ccccc31)C2
2. C=CC(=O)Nc1cccc(-n2c(=O)ccc3cnc4ccc(-c5cn[nH]c5)cc4c32)c1
3. CC(C)(C)Oc1ccccc1NCC(=O)N[C@@H]1CCCN(c2ncnc3[nH]ccc23)C1
4. COc1ncnc2[nH]cc(Cc3cnc(NCc4cncc(F)c4)nc3)c12
5. NC(=O)[C@H]1CCN(c2ncnc(N)c2F)C[C@@H]1N1CCC[C@@H](Nc2cc(Cl)cc(C(F)(F)F)c2)C1=O
6. CN1CC(n2cc(Nc3nccc(-c4ccc(CNC(=O)c5cc(C(C)(C)C)on5)c(C(F)(F)F)c4)n3)cn2)C1
7. C=CC(=O)Nc1cccc(Oc2nc(Nc3ccc(N4CCN(C(=O)CN(C)C)CC4)cc3)nc3ccsc23)c1

1. 9.24 nM
2. 18 nM
3. 100 to 999 nM
4. ≤ 10000 nM
5. 0.73 nM
6. < 10 nM
7. ≤ 50 nM

For each entry beneath this line, provide reported IC50.
1. CN(C)C/C=C/C(=O)Nc1cccc(Nc2cc(Nc3ccc(F)c(Cl)c3)ncn2)n1
2. CCCS(=O)(=O)Nc1ccc(F)c(C(=O)c2c[nH]c3ncc(-c4cccnc4)cc23)c1F
3. C=CC(=O)N[C@H]1CC[C@@H](Nc2nc(Nc3cnn(CCF)c3)nc3ccsc23)CC1
4. O=C(c1cccc(NS(=O)(=O)N2CCCCC2)c1)c1c[nH]c2ncc(Cl)cc12
5. O=C(CNc1cccc2c1OC(F)(F)O2)NC1CCCN(c2ncnc3[nH]ccc23)C1 (stereo not drawn)

≤ 10 nM
≤ 10000 nM
≤ 50 nM
≤ 10000 nM
< 100 nM
